Hello, the source for this data is patent US9215875B2, in case you need it.

- Assay notes: log P determination by HPLC on reversed-phase columns (C 18), acidic range pH 2.7
- Type: physicochemical
- Measurement conditions: HPLC, pH 2.7; second-listed (minor) isomer of the isomer mixture
Property: logP

compound="CC(=NOC1CCCCC1)c1csc(C2CCN(C(=O)Cc3cc(Cl)ccc3Cl)CC2)n1 (mixture of isomers) [I-46]" measured_number=6.17
compound="Cc1cc(C(F)(F)F)nn1CC(=O)N1CCC(c2nc(C=NOCc3ccc(Cl)cc3)cs2)CC1 (mixture of isomers) [I-7]" measured_number=4.23
compound="CC(=NOc1ccccc1)c1csc(C2CCN(C(=O)Cn3nc(C(F)(F)F)cc3C)CC2)n1 (mixture of isomers) [I-4]" measured_number=4.46
compound="CC(=NOCc1ccccc1)c1csc(C2CCN(C(=O)Cn3nc(C(F)(F)F)cc3C)CC2)n1 (mixture of isomers) [I-10]" measured_number=4.28

* * *

- Assay notes: log P determination by HPLC on reversed-phase columns (C 18), acidic range pH 2.7
- Assay type: physicochemical
- Measurement conditions: HPLC, pH 2.7; second-listed (minor) isomer of the isomer mixture
Label 1 (yes) when logP is strictly below 4; otherwise label 0 (no).

compound="CC(=NOC1CCCCC1)c1csc(C2CCN(C(=O)Cn3nc(C(F)(F)F)cc3C)CC2)n1 (mixture of isomers)" class="0 (no)"
compound="Cc1cc(C(F)(F)F)nn1CC(=O)N1CCC(c2nc(C=NOCc3c(F)cccc3F)cs2)CC1 (mixture of isomers)" class="1 (yes)"
compound="O=C(Cn1nc(C(F)F)cc1C(F)F)N1CCC(c2nc(C=NOC3CCCCC3)cs2)CC1 (mixture of isomers)" class="0 (no)"
compound="O=C(Cn1nc(C(F)F)cc1C(F)F)N1CCC(c2nc(C=NOCc3c(F)cccc3F)cs2)CC1 (mixture of isomers)" class="1 (yes)"
compound="CC(=NOCc1c(F)cccc1F)c1csc(C2CCN(C(=O)Cc3cc(Cl)ccc3Cl)CC2)n1 (mixture of isomers)" class="0 (no)"
compound="O=C(Cc1cc(Cl)ccc1Cl)N1CCC(c2nc(C=NOC3CCCCC3)cs2)CC1 (mixture of isomers)" class="0 (no)"
compound="Cc1cc(C(F)(F)F)nn1CC(=O)N1CCC(c2nc(C=NOC(C)c3ccc(Cl)cc3)cs2)CC1 (mixture of isomers)" class="0 (no)"
compound="CC(=NOCc1c(F)cccc1F)c1csc(C2CCN(C(=O)Cn3nc(C(F)(F)F)cc3C)CC2)n1 (mixture of isomers)" class="0 (no)"
compound="Cc1cc(C(F)(F)F)nn1CC(=O)N1CCC(c2nc(C=NOCc3ccccc3F)cs2)CC1 (mixture of isomers)" class="1 (yes)"

* * *

- Assay notes: log P determination by HPLC on reversed-phase columns (C 18), acidic range pH 2.7
- Assay type: physicochemical
- Measurement conditions: HPLC, pH 2.7; only value, or main isomer
The compounds listed here are annotated with their logP.
Property: logP

compound="CC(=NOCc1c(F)cccc1F)c1csc(C2CCN(C(=O)Cn3nc(C(F)(F)F)cc3C)CC2)n1 (mixture of isomers) [I-41]" measured_number=4.11
compound="Cc1cc(C(F)(F)F)nn1CC(=O)N1CCC(c2nc(C=NOCc3ccccc3Cl)cs2)CC1 [I-18]" measured_number=4.04
compound="Cc1cc(C(F)(F)F)nn1CC(=O)N1CCC(c2nc(C=NOC(C)c3ccc(Cl)cc3)cs2)CC1 (mixture of isomers) [I-8]" measured_number=4.34
compound="O=C(Cc1cc(Cl)ccc1Cl)N1CCC(c2nc(C=NOc3ccccc3Br)cs2)CC1 [I-40]" measured_number=4.90
compound="Cc1cc(C(F)(F)F)nn1CC(=O)N1CCC(c2nc(C=NOC3CCCCC3)cs2)CC1 (mixture of isomers) [I-33]" measured_number=4.26
compound="Cc1cc(C(F)(F)F)nn1CC(=O)N1CCC(c2nc(C=NOCc3ccccc3F)cs2)CC1 (mixture of isomers) [I-9]" measured_number=3.68
compound="CC(=NOCc1ccccc1)c1csc(C2CCN(C(=O)Cn3nc(C(F)(F)F)cc3C)CC2)n1 (mixture of isomers) [I-10]" measured_number=4.07
compound="CC(=NOCCCc1ccccc1)c1csc(C2CCN(C(=O)Cn3nc(C(F)(F)F)cc3C)CC2)n1 [I-21]" measured_number=4.66
compound="Cc1cc(C(F)(F)F)nn1CC(=O)N1CCC(c2nc(C=NOC(C)c3ccccc3)cs2)CC1 (mixture of isomers) [I-3]" measured_number=3.92
compound="Cc1ccccc1CON=Cc1csc(C2CCN(C(=O)Cn3nc(C(F)(F)F)cc3C)CC2)n1 (mixture of isomers) [I-6]" measured_number=3.96
compound="CC(C)c1cc(C(F)(F)F)n(CC(=O)N2CCC(c3nc(C=NOCc4ccc(Cl)cc4)cs3)CC2)n1 [I-32]" measured_number=4.56
compound="CCc1cc(C(F)(F)F)nn1CC(=O)N1CCC(c2nc(C=NOCc3ccc(Cl)cc3)cs2)CC1 [I-26]" measured_number=4.30
compound="CC(=NOc1ccccc1)c1csc(C2CCN(C(=O)Cn3nc(C(F)(F)F)cc3C)CC2)n1 (mixture of isomers) [I-4]" measured_number=4.23
compound="Cc1cc(C(F)(F)F)nn1CC(=O)N1CCC(c2nc(C=NN(C)Cc3ccccn3)cs2)CC1 [I-11]" measured_number=1.82
compound="Cc1cc(C(F)(F)F)nn1CC(=O)N1CCC(c2nc(C=NN(Cc3ccccc3)c3ccccc3)cs2)CC1 [I-12]" measured_number=4.70
compound="CC(=NOC1CCCCC1)c1csc(C2CCN(C(=O)Cc3cc(Cl)ccc3Cl)CC2)n1 (mixture of isomers) [I-46]" measured_number=5.87
compound="O=C(Cn1nc(C(F)(F)F)cc1C(F)(F)F)N1CCC(c2nc(C=NOCc3ccc(Cl)cc3)cs2)CC1 [I-24]" measured_number=4.56
compound="Cc1cc(C(F)(F)F)nn1CC(=O)N1CCC(c2nc(C=NOc3ccccc3Br)cs2)CC1 [I-39]" measured_number=4.14
compound="O=C(Cn1nc(C(F)F)cc1C(F)F)N1CCC(c2nc(C=NOC3CCCCC3)cs2)CC1 (mixture of isomers) [I-34]" measured_number=4.12
compound="CCc1cc(CC)n(CC(=O)N2CCC(c3nc(C=NOCc4ccc(Cl)cc4)cs3)CC2)n1 [I-25]" measured_number=3.70
compound="CC(C)(C)c1cc(C(F)(F)C(F)(F)F)n(CC(=O)N2CCC(c3nc(C=NOCc4ccc(Cl)cc4)cs3)CC2)n1 [I-30]" measured_number=5.31
compound="Cc1cc(C(F)(F)F)nn1CC(=O)N1CCC(c2nc(C=NOCc3ccc(Cl)cc3)cs2)CC1 (mixture of isomers) [I-7]" measured_number=4.04
compound="O=C(Cn1nc(C(F)F)cc1C(F)F)N1CCC(c2nc(C=NOCc3c(F)cccc3F)cs2)CC1 (mixture of isomers) [I-37]" measured_number=3.58
compound="O=C(Cn1nc(C(F)F)cc1C(F)F)N1CCC(c2nc(C=NOCc3ccc(Cl)cc3)cs2)CC1 [I-27]" measured_number=3.90
compound="CC(C)(C)c1cc(C(F)(F)F)n(CC(=O)N2CCC(c3nc(C=NOCc4ccc(Cl)cc4)cs3)CC2)n1 [I-28]" measured_number=4.99
compound="CC(C)(C)c1cc(C(F)(F)F)nn1CC(=O)N1CCC(c2nc(C=NOCc3ccc(Cl)cc3)cs2)CC1 [I-29]" measured_number=4.75
compound="Cc1cc(C(F)(F)F)nn1CC(=O)N1CCC(c2nc(C=NN(C)c3ccccc3)cs2)CC1 [I-15]" measured_number=3.83
compound="Cc1cc(C(F)(F)F)nn1CC(=O)N1CCC(c2nc(C=NOCc3c(F)cccc3F)cs2)CC1 (mixture of isomers) [I-36]" measured_number=3.70
compound="Cc1cc(C(F)(F)F)nn1CC(=O)N1CCC(c2nc(C=NN3CCCCC3)cs2)CC1 [I-16]" measured_number=3.00
compound="O=C(Cc1cc(Cl)ccc1Cl)N1CCC(c2nc(C=NOCc3c(F)cccc3F)cs2)CC1 (mixture of isomers) [I-38]" measured_number=4.36

* * *

The compounds listed here are annotated with their logP.
- Assay notes: log P determination by HPLC on reversed-phase columns (C 18), acidic range pH 2.7
- Format: physicochemical
- Measurement conditions: HPLC, pH 2.7; only value, or main isomer
Property: logP

compound="Cc1cc(C(F)(F)F)nn1CC(=O)N1CCC(c2nc(C=NOCc3ccccc3)cs2)CC1 (mixture of isomers)" measured_number=3.63
compound=CCCCCON=C(C)c1csc(C2CCN(C(=O)Cn3nc(C(F)(F)F)cc3C)CC2)n1 measured_number=4.71
compound="CC(=NOCc1c(F)cccc1F)c1csc(C2CCN(C(=O)Cn3nc(C(F)F)cc3C(F)F)CC2)n1 (mixture of isomers)" measured_number=4.00
compound="CC(=NOCc1c(F)cccc1F)c1csc(C2CCN(C(=O)Cc3cc(Cl)ccc3Cl)CC2)n1 (mixture of isomers)" measured_number=4.91
